The origin of these recorded values is patent US20260242478A1.

- study-target: T1, Anti-PSMA Fab (SEQ ID NOs: 19, 20)
- T1 construct: Biotinylated and captured on neutravidin coated plates in the phage ELISA; also called 006 PSMA Fab
- assay-remarks: phage binding ELISA on captured PSMA Fab; wells pre-incubated with PSMA antigen as competitor
reported-endpoint: Anti-PSMA Fab signal in the presence of PSMA

binder="SERWCIPTWMCQET (tested as crude clonal phage supernatant) [Phage-1978]" result_value=0.0819
binder="YIKWCTPSWMCEAS (tested as crude clonal phage supernatant) [Phage-1968]" result_value=0.113
binder="DVKMCIPAWMCSFD (tested as crude clonal phage supernatant) [Phage-1967]" result_value=0.0712
binder="LVKWCIPEWMCEVL (tested as crude clonal phage supernatant) [Phage-1974]" result_value=0.0751
binder="MAQWCTPAWMCSGF (tested as crude clonal phage supernatant) [Phage-1977]" result_value=0.0721
binder="VEKWCKPTWMCEMV (tested as crude clonal phage supernatant) [Phage-1969]" result_value=0.0976
binder="WDKWCRPAWMCEST (tested as crude clonal phage supernatant) [Phage-1966]" result_value=0.0851
binder="TMHWCIPQWMCETG (tested as crude clonal phage supernatant) [Phage-1976]" result_value=0.25
